These measurements were taken from patent US11420973B2.

- Study system: human TLR9 (Homo sapiens (Human), UniProt Q9NR96)
- Sequence (Q9NR96 26-1032): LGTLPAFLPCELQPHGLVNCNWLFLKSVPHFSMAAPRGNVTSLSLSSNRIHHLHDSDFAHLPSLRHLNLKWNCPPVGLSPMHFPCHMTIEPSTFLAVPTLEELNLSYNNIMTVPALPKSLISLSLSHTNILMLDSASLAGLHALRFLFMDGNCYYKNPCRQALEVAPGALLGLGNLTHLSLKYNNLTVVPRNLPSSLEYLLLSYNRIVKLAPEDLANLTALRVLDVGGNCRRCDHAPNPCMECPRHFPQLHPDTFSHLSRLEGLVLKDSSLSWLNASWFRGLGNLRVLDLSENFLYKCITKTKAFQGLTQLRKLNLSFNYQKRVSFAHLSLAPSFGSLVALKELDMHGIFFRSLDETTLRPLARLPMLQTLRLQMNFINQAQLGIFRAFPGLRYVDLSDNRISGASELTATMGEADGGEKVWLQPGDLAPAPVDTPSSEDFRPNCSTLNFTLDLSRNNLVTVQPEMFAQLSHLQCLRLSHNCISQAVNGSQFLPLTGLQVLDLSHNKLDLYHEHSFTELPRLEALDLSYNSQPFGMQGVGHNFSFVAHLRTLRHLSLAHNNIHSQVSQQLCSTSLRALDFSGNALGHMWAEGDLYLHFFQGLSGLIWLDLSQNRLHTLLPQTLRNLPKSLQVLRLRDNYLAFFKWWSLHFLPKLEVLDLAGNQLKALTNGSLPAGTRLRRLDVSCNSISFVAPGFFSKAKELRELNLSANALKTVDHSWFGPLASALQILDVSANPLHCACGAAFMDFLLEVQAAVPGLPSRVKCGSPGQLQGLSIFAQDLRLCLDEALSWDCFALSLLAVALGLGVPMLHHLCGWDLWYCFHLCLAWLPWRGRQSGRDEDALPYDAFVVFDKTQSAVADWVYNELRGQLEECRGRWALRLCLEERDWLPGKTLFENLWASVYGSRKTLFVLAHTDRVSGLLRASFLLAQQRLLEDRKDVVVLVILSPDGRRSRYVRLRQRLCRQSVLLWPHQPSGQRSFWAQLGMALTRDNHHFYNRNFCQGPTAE
- Protocol: TLR9 inhibition reporter assay (HEK-Blue SEAP reporter, ODN2006 stimulation);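 further: SEAP reporter under IFN-β minimal promoter with five NF-κB and AP-1 sites, 22 h incubation, compounds 0.05 nM–50 µM, inhibition relative to agonist plus DMSO versus known inhibitor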
- Experimental conditions: read-out: TLR9 IC50; HEK-Blue cells overexpressing human TLR9, ODN2006 5 nM, SEAP reporter
pIC50: −log10 of the molar value.
Reported metric: pIC50

Below, 3 molecules whose answers are already recorded.
molecule="Cc1cc(-c2[nH]c3ccc(C(C)(C)C(=O)N(C)C4CCNCC4)cc3c2C(C)C)ccn1 [Example 165]" study_system="human TLR9 (Homo sapiens (Human), UniProt Q9NR96)" recorded_measurement=6.04
molecule="Cc1cc(-c2[nH]c3ccc(C(C)(C)C(=O)N4CCCC5(CCNC5)C4)cc3c2C(C)C)ccn1 (centres unmarked) [Example 184]" study_system="human TLR9 (Homo sapiens (Human), UniProt Q9NR96)" recorded_measurement=6.27
molecule="Cc1cc(-c2[nH]c3ccc(C(C)C(=O)N(C)C4CCCNC4)cc3c2C(C)C)ccn1 (centres unmarked) [Example 210]" study_system="human TLR9 (Homo sapiens (Human), UniProt Q9NR96)" recorded_measurement=6.14

[A] Cc1cc(-c2[nH]c3ccc(C(=O)N4CC5CN(C(C)C)CC5C4)cc3c2C(C)C)ccn1 (centres unmarked) [Example 116]
[B] Cc1cc(-c2[nH]c3ccc(C(C)(C)C(=O)N4CCC5(CCNC5)CC4)cc3c2C(C)C)ccn1 [Example 181]
Could you tell me which of these two has the smaller pIC50 figure? First: A Second: B Give the label of your selection.
B
(B: 5.71, A: 6.01)

[1] Cc1cc(-c2[nH]c3ccc(C(C)(C)C(=O)N[C@H]4CCCC[C@H]4N)cc3c2C(C)C)ccn1 [Example 170]
[2] COc1ccc(-c2[nH]c3ccc(C(=O)N4CC5CN(C6CCN(C)CC6)CC5C4)cc3c2C(C)C)cc1OC (centres unmarked) [Example 15]
[3] Cc1c(-c2[nH]c3ccc(C(=O)N(C)CCN(C)C)cc3c2C(C)C)cn(C)c(=O)c1Cl [Example 222]
[4] Cc1cc(-c2[nH]c3ccc(C(C)(C)C(=O)N4CCCC(CN)C4)cc3c2C(C)C)ccn1 (centres unmarked) [Example 156]
Rank the 4 molecules: largest pIC50 first, smallest last. List the labels in the requested order.
2, 4, 1, 3

[P] CCc1c(-c2ccnc(C)c2)[nH]c2ccc(C(=O)N(CC)CCN(C)C)cc12 [Example 84]
[Q] Cc1cc(-c2[nH]c3ccc(C(C)(C)C(=O)N4CCC(CN)C4)cc3c2C(C)C)ccn1 (centres unmarked) [Example 151]
[R] Cc1cc(-c2[nH]c3ccc(C(C)(C)C(=O)NCC4(O)CCN(C)CC4)cc3c2C(C)C)ccn1 [Example 173]
Order the records so the highest pIC50 appears first and the lowest last. The response must list the labels following the requested ordering.
R, P, Q
